# tgt: human SGLT2 (Homo sapiens, UniProt P31639)
# Sequence (P31639 1-672): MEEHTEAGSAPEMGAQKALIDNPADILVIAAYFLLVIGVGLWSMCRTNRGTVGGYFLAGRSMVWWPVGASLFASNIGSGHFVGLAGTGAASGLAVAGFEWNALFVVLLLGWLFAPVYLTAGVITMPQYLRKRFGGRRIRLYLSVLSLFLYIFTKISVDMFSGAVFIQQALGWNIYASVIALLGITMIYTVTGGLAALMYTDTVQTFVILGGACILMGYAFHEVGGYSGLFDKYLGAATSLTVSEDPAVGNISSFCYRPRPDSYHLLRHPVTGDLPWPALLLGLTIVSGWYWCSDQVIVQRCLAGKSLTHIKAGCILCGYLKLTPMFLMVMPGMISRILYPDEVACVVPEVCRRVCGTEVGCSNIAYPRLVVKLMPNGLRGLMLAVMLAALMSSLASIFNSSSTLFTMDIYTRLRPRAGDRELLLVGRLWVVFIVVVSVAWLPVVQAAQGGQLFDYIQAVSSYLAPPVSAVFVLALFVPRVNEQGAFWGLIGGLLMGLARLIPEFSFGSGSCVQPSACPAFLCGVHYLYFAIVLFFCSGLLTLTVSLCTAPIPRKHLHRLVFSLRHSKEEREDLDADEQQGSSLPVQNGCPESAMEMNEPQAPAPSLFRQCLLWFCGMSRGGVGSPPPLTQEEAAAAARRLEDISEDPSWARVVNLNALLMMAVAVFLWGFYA
# experimentNotes: Inhibition of methyl-α-D-glucopyranoside (α-MG) uptake in COS-7 cells expressing human SGLT2
# assaySetup: COS-7 cells expressing human SGLT2, 1 mM α-MG, 1 hour incubation at 37° C.
Parameter: pIC50. Scope: all listed entries.
pIC50 field: float, defined as -log10 of concentration (mol/L).

Answered examples (4):
CCc1ccc(Cc2cn([C@@H]3O[C@H](CO)[C@@H](O)[C@H](O)[C@H]3O)c3ccccc23)cc1 :: 9.30
COc1ccc(Cc2cn([C@@H]3O[C@H](CO)[C@@H](O)[C@H](O)[C@H]3O)c3cc(C)ccc23)cc1 :: 9.05
COc1ccc(Cc2cn([C@@H]3O[C@H](CO)[C@@H](O)[C@H](O)[C@H]3O)c3ccccc23)c(F)c1 :: 7.96
COc1ccc(Sc2cn([C@@H]3O[C@H](CO)[C@@H](O)[C@H](O)[C@H]3O)c3cc(C)ccc23)cc1 :: 9.40

Turning now to a further record.
GET /value?item= `COc1ccc(Cc2cn([C@@H]3O[C@H](CO)[C@@H](O)[C@H](O)[C@H]3O)c3cccc(C)c23)cc1` &field=pIC50 returns 9.22
